Numbers sourced from patent US20120328625A1.

Below, each entry is listed with its recorded pKd.
# system-under-test: T1, Recombinant Human Sonic Hedgehog C24II amino terminal peptide (R&D Systems cat#1845-SH) (human, UniProt Q15465 24-197)
# T1 construct: domain: amino terminal peptide; bought; also called Shh-C24II; C24II peptide
# assay-method-text: ELISA, apparent KD, purified antibody on immobilized Shh C24II
Worth noting: pKd values are minus log10 of concentrations stated in mol/L.

Worked examples, 3 binders total:
1G1 (antibody, V domains shown, fully human XenoMouse hybridoma antibody; also called MAb 1G1) VH: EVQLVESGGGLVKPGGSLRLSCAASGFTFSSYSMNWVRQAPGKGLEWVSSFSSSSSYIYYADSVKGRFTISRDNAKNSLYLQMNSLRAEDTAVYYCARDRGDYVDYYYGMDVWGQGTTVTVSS VL: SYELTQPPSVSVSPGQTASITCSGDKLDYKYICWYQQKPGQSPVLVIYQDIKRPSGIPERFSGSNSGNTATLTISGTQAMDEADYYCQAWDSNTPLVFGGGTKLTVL : 10.21
6D7 (antibody, V domains shown, fully human XenoMouse hybridoma antibody; also called MAb 6D7) VH: QVQLQESGPGLVKPSQTLSLTCTVSGGSINSGGFYWSWIRQHPGKNLEWIGSIYYSGNTYYNPSLKSRVTISVDTSKNQFSLKLTSVTAADTAVYYCARGNDSGDYDWYFDLWGRGTLVTVSS VL: SYELTQPPSVSVSPGQTASITCSGEKLGYKYVCWYQQKPGQSPVLVIFHDNKRPSGIPERFSGSNSGNTATLTISGAQAMDEADYYCQAGDSSAVFGGGTKLTVL : 10.33
3H8OP (antibody, V domains shown) VH: QVQLVESGGGVVQPGRSLRLSCAASGFTFSTYGMHWVRQAPGKGLEWVAVIWYDGSNKYYADSVKGRFTISRDNSKNTLYLQMNSLRAEDTAVYYCARDLYYYGSGSPFDYWGQGTLVTVSS VL: EIVMTQSPATLSVSPGERATLSCRASQSVSSNLAWYQQKPGQAPRLLIYGVSIRATGIPARFSGSGSGTEFTLTISSLQSEDFAVYYCQQYNNWPRPGFGGGTKVEIK : 10.09

# input Reported pKd for 3H8 (antibody, V domains shown, fully human XenoMouse hybridoma antibody; also called MAb 3H8) VH: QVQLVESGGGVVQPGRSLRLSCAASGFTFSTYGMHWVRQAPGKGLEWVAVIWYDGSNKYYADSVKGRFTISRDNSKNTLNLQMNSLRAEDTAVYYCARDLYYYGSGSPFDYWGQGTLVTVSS VL: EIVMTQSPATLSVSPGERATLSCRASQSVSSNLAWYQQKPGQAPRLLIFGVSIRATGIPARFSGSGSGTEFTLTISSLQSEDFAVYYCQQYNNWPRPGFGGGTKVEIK : what is it?
# output 10.16
